Values from the supplement of paper PMC10567573

B1: RIPK4 (parent)
chain: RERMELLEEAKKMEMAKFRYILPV

Variants of: B1
assay comment: protein stability index of a GFP-peptide fusion (GPS, HEK-293T) (PSI 1-6); higher = more stable;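 note: lentivirally expressed fusions sorted by FACS into six bins by GFP to DsRed ratio, PSI derived from sequencing read proportions per bin multiplied by bin number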
test parameters: c terminus: a fixed tail appended
Please provide measured protein stability index for the entries that follow.

INSERT INTO results (changes, reported) VALUES
  ('E8C', 3.01),
  ('R3M', 2.7),
  ('M13V', 2.85),
  ('E5H', 1.99),
  ('E14S', 2.86),
  ('R3Y', 3.25);

Please give protein stability index, item by item, for the list that follows.
1. E2Y
2. E9R
3. L22I

Result:
1: 2.74; 2: 2.4; 3: 5.51

Please give protein stability index, item by item, for the list that follows.
1. R3Q
2. P23E
3. M15H
4. M4P

Result:
1: 4.19; 2: 2.7; 3: 4.28; 4: 3.8

Please give protein stability index, item by item, for the list that follows.
1. K11L
2. M13K
3. E9N
4. K11Y
5. P23M
6. K12I

Result:
[4.66, 3.84, 3.44, 1.08, 2, 2.37]

Please give protein stability index, item by item, for the list that follows.
1. P23C
2. R1W
3. K11M
4. P23G

Result:
1: 3.02; 2: 2.5; 3: 2.45; 4: 1.95
